Test: Ratio of drug level in brain to plasma in rat at 2 mg/kg, po
Format: ADME, organism-based
Set-up: dose 2 mg/kg, route oral
Conditions: read-out: BPR
Parameter measured: Kp

[[record]]
compound_structure = "C[C@H](Oc1ccc(S(C)(=O)=O)cc1C(=O)N1Cc2cc(C(F)(F)F)cnc2C1)C(F)(F)F"
value = 0.2


====

Biological target: hERG (KCNH2) (Homo sapiens, UniProt Q12809)
Sequence (Q12809 whole entry): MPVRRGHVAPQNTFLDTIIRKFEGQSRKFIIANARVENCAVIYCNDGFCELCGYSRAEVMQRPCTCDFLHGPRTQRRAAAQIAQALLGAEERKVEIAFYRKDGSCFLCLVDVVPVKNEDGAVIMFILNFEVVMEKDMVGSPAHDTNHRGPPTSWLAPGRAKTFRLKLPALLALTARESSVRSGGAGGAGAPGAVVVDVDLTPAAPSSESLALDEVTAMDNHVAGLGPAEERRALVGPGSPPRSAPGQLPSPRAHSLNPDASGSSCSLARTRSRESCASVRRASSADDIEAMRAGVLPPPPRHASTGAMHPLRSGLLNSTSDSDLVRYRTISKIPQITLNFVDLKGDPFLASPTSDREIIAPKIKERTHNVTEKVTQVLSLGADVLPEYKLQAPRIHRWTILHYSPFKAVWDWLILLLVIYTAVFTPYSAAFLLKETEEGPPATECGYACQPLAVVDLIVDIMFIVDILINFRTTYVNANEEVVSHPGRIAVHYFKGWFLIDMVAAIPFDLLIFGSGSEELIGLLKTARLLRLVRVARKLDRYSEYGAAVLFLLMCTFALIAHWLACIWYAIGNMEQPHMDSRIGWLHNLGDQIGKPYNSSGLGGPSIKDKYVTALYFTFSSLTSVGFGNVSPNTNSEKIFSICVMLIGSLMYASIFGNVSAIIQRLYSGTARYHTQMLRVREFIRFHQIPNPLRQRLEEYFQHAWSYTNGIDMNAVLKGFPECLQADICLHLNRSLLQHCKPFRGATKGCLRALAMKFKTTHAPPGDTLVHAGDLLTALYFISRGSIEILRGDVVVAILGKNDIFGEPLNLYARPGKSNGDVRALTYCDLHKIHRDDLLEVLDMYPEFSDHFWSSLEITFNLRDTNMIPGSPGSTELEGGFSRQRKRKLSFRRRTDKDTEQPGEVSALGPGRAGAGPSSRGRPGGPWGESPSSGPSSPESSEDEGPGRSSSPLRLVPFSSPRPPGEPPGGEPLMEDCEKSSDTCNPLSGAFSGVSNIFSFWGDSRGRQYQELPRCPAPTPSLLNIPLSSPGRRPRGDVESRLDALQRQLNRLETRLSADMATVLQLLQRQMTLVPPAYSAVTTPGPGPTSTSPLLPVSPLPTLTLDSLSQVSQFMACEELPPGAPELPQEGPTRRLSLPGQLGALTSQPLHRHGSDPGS
Assay: Inhibition of human ERG at 10 uM by patch clamp assay
Criterion: inhibition at 10 µM meeting or surpassing 40%. Met: Condition met. Not met: Condition not met.

[[record]]
compound_structure = "CC(C)Oc1ccc(S(C)(=O)=O)cc1C(=O)N1Cc2ccc(C3CCOCC3)cc2C1"
class_label = "Condition not met"

[[record]]
compound_structure = "C[C@H](Oc1ccc(S(C)(=O)=O)cc1C(=O)N1Cc2ccc(C(F)(F)F)cc2C1)C(F)(F)F"
class_label = "Condition met"

[[record]]
compound_structure = "C[C@H](Oc1ccc(S(C)(=O)=O)cc1C(=O)N1Cc2ccc(-c3ccccc3)cc2C1)C(F)(F)F"
class_label = "Condition met"

[[record]]
compound_structure = "CC(C)Oc1ccc(S(C)(=O)=O)cc1C(=O)N1Cc2cc(C(F)(F)F)cnc2C1"
class_label = "Condition not met"

[[record]]
compound_structure = "CS(=O)(=O)c1ccc(-c2ccc(F)c(F)c2)c(C(=O)N2Cc3cc(C(F)(F)F)cnc3C2)c1"
class_label = "Condition not met"

[[record]]
compound_structure = "C[C@H](Oc1ccc(S(C)(=O)=O)cc1C(=O)N1Cc2ccc(C3CCOCC3)cc2C1)C(F)(F)F"
class_label = "Condition not met"

[[record]]
compound_structure = "C[C@H](Oc1ccc(S(C)(=O)=O)cc1C(=O)N1Cc2ccc(-c3ccncc3)cc2C1)C(F)(F)F"
class_label = "Condition met"

[[record]]
compound_structure = "C[C@H](Oc1ccc(S(C)(=O)=O)cc1C(=O)N1Cc2cc(C(F)(F)F)cnc2C1)C(F)(F)F"
class_label = "Condition not met"

[[record]]
compound_structure = "CC(C)COc1ccc(S(C)(=O)=O)cc1C(=O)N1Cc2cc(C(F)(F)F)cnc2C1"
class_label = "Condition not met"

[[record]]
compound_structure = "CS(=O)(=O)c1ccc(-c2ccc(F)cc2)c(C(=O)N2Cc3ccc(C4CCOCC4)cc3C2)c1"
class_label = "Condition not met"

